# Tested on: transient receptor potential cation channel C4 beta (TRPC4), mouse
# experiment.notes: activators of mouse TRPC4 channel, confirmation, cell-based, second round, Fluo4, HEK293 TRPC4beta/mu-opioid, 1 µM (AID 2461)
# test.conditions: Fluo4 calcium fluorescence, at 1 µM
Active and inactive are the calls of the source.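 Rule for the calls: active = primary screen active and over 50% activation in each of two duplicate runs; inactive = the rest.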
Outcomes: active, inactive

{"substance.smiles": "CC(=O)N1CCc2cc(Br)cc(S(=O)(=O)NCCCN(C)Cc3ccccc3)c21", "target": "transient receptor potential cation channel C4 beta (TRPC4), mouse", "classification": "active"}
{"substance.smiles": "Cc1cc(C)c(C)c(OCCCN(C)C)c1", "target": "transient receptor potential cation channel C4 beta (TRPC4), mouse", "classification": "active"}
{"substance.smiles": "CC(=O)Nc1ccc(C2(c3ccc(NC(C)=O)cc3)C(=O)Nc3ccccc32)cc1", "target": "transient receptor potential cation channel C4 beta (TRPC4), mouse", "classification": "inactive"}
{"substance.smiles": "COc1ccc(C(=O)NC(=S)NNC(=O)c2c(-c3ccccc3)noc2C)cc1OC", "target": "transient receptor potential cation channel C4 beta (TRPC4), mouse", "classification": "inactive"}
{"substance.smiles": "CC(C)(C)c1cc(CCC(=O)NNC(=S)NC(=O)c2ccccc2)cc(C(C)(C)C)c1O", "target": "transient receptor potential cation channel C4 beta (TRPC4), mouse", "classification": "inactive"}
{"substance.smiles": "COc1ccc(CCN(C)CCC(=O)Nc2c(C)cc(C)cc2C)cc1OC", "target": "transient receptor potential cation channel C4 beta (TRPC4), mouse", "classification": "inactive"}

* * *

# target: Potassium voltage-gated channel subfamily KQT member 2 (Rattus norvegicus)
# experiment.notes: rat KCNQ2 channel potentiation, selectivity assay for KCNQ1 potentiator project, KCNQ2-CHO-K1 cells (AID 493009);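 note: assay conditions were tuned for KCNQ1 rather than KCNQ2 modulators; signal is max minus min fluorescence divided by baseline after thallium stimulus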
# test.conditions: FluxOR thallium flux fluorescence, at 10 µM, scaled: buffer 0, activator control 100
Active and inactive are the calls of the source.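 Rule for the calls: active = mean duplicate potentiation above the buffer control mean plus 5 SD of buffer wells; inactive = the rest.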
Outcomes: class 1 for active, class 0 for inactive

{"molecule": "O=C(NC(=S)Nc1ccc(N2CCCCC2)cc1)c1ccco1", "classification": "class 1"}
{"molecule": "O=C(NC(=S)Nc1ccccc1Cl)c1ccco1", "classification": "class 1"}
{"molecule": "COc1ccc(C(=O)NC(=S)N(Cc2ccccc2)Cc2ccccc2)cc1", "classification": "class 1"}
{"molecule": "COc1ccc(NC(=O)C(=O)NNC(=O)c2cccs2)c(OC)c1", "classification": "class 1"}
{"molecule": "C/C(=N\\NS(=O)(=O)c1ccc(Br)cc1)c1cccs1", "classification": "class 0"}
{"molecule": "Cc1ccc2nc3c(cc(C(=O)NCC4CCCO4)c(=N)n3C3CCCC3)c(=O)n2c1 (centres undefined)", "classification": "class 0"}
{"molecule": "CNC(C)C#Cc1ccc2sc3cccc(OC)c3c(=O)c2c1 (centres undefined)", "classification": "class 0"}
{"molecule": "Cc1ccc(C(=O)CSc2nnc3c4ccccc4nc(C(C)(C)C)n23)cc1", "classification": "class 0"}
{"molecule": "OC(CON=C1c2ccccc2-c2ccccc21)CN1CCNCC1 (centres undefined)", "classification": "class 0"}
{"molecule": "O=c1ccc(N=Nc2ccccc2)ccc1O", "classification": "class 1"}
{"molecule": "Cn1c(SCc2ccc(C#N)cc2Cl)nc2ccccc21", "classification": "class 0"}
{"molecule": "C=CCN1C(=O)C(CC(=O)NCC)SC1=Nc1ccc(S(N)(=O)=O)cc1 (centres undefined)", "classification": "class 0"}
{"molecule": "COc1cc(OC)cc(C(=O)NNC(=O)C(=O)Nc2cc(OC)c(Cl)cc2OC)c1", "classification": "class 1"}
{"molecule": "CCn1c(CC(=O)Nc2ccccc2)nnc1SCC(=O)Nc1nncs1", "classification": "class 0"}
{"molecule": "CC1=NOC(=O)/C1=C\\c1ccc(-c2ccc(Br)cc2)o1", "classification": "class 0"}
{"molecule": "CC(C)CN=Cc1c(O)c([N+](=O)[O-])cc2oc3c(c12)CCCC3", "classification": "class 0"}
{"molecule": "N#CC1(c2ccc(NC(=O)c3ccccc3F)cc2)CCCC1", "classification": "class 0"}
{"molecule": "Cc1cc(Cl)ccc1OCC(=O)NNC(=O)C1CCCO1 (centres undefined)", "classification": "class 0"}
{"molecule": "Cc1ccc(NC(=S)NC(=O)c2cncc(Br)c2)cc1Cl", "classification": "class 1"}
{"molecule": "CCn1c2ccccc2c2cc(CC(N)=O)ccc21", "classification": "class 0"}
{"molecule": "N#CC(c1ccccc1)c1ccc2c(C(F)(F)F)cc(C(F)(F)F)nc2n1 (centres undefined)", "classification": "class 0"}
{"molecule": "COc1ccc2c(-c3ccccc3)cc(=S)[nH]c2c1", "classification": "class 1"}
{"molecule": "COC(=O)c1cccc(NC(=O)CSc2nncn2-c2ccccn2)c1", "classification": "class 0"}
{"molecule": "S=c1nc(C2CC2)[nH]c2ccccc12", "classification": "class 1"}
{"molecule": "CCCCS(=O)(=O)/C=C\\C=C/S(=O)(=O)CCCC", "classification": "class 0"}
{"molecule": "O=C(O)CCC(=O)Nc1ccc(-c2nc3ccc(C(=O)c4ccccc4)cc3[nH]2)cc1", "classification": "class 0"}
{"molecule": "CCOc1ccc(OCCCN(C)C)cc1", "classification": "class 0"}
{"molecule": "O=C1c2cccc3cccc(c23)C(=O)N1c1cccc(O)c1", "classification": "class 0"}
{"molecule": "CSc1nccc(-c2nn(-c3ccc(C)cc3)ccc2=O)n1", "classification": "class 0"}
{"molecule": "CC(C)(C)NC(=O)C(=O)NNC(=O)c1cccc(F)c1", "classification": "class 1"}
{"molecule": "CN1C(=O)c2ccc(NC(=O)c3c(F)c(F)c(F)c(F)c3F)cc2C1=O", "classification": "class 0"}
{"molecule": "Cc1ccc2cc3cc(C(=O)NC4CC4)oc3nc2c1", "classification": "class 0"}
{"molecule": "Oc1c(Br)cc(Br)cc1C=Nc1cccc2ncccc12", "classification": "class 0"}
{"molecule": "COc1cccc(-c2cn(-c3cccc(C(F)(F)F)c3)c(=S)[nH]2)c1", "classification": "class 0"}
{"molecule": "O=C(NCc1ccccn1)c1ccc(COc2ccc(Cl)cc2)o1", "classification": "class 1"}
{"molecule": "S=c1[nH]nc(-c2cccs2)n1/N=C/c1cn(-c2ccccc2)nc1-c1ccccc1", "classification": "class 0"}
{"molecule": "Oc1c(N=Nc2ccccn2)ccc2ccccc12", "classification": "class 1"}
{"molecule": "CCOC(=O)Cc1csc(NC(=S)NC(=O)C(C)(C)C)n1", "classification": "class 0"}
{"molecule": "C=CCOc1ccc(/C=C2\\SC(=S)N(NS(=O)(=O)c3ccc(C)cc3)C2=O)cc1", "classification": "class 1"}
